Could you please report measured DC50 for the items listed next?
Target: SHP2 protein (Homo sapiens, UniProt Q06124)
Sequence (Q06124 1-593): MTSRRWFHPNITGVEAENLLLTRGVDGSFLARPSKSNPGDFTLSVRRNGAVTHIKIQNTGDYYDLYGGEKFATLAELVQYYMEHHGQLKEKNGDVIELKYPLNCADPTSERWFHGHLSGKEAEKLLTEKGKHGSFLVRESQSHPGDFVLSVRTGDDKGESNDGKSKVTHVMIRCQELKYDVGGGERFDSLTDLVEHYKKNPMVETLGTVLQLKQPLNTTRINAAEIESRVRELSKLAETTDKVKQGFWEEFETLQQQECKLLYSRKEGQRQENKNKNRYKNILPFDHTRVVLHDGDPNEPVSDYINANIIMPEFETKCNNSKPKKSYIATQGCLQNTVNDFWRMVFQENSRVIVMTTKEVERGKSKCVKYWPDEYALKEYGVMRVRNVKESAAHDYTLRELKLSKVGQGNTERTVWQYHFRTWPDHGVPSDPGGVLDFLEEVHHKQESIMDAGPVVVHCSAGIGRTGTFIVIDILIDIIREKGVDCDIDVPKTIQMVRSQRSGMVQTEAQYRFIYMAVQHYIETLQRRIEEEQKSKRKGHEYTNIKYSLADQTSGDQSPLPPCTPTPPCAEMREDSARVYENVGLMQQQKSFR
Assay: Degradation activity on SHP2 protein in MIA Paca-2 cells (Western blot, DC50)
Assay type: cell-based
Design: endogenous in cells; host or cells: MIA Paca-2 cells
Settings: read-out: Degradation activity for differenct cell lines MIA Paca-2 (DC50)

Please report DC50 for every entry that follows.
1. Cc1ncsc1-c1ccc([C@H](C)NC(=O)[C@@H]2C[C@@H](O)CN2C(=O)[C@@H](NC(=O)c2cnc(N3CCN(CCCC(=O)Nc4cccc(Sc5cnc(N6CCC7(CC6)CO[C@@H](C)[C@H]7N)cn5)c4)CC3)nc2)C(C)(C)C)cc1 [Compound 230]
2. CC1(N)CCN(c2cnc(Sc3cccc(NC(=O)CCCCCCN4CC5(CCN(c6cnc(C(=O)NCc7ccc8c(c7)CN(C7CCC(=O)NC7=O)C8=O)cn6)C5)C4)c3)cn2)CC1 (centres unmarked) [Compound 179]

1. < 100 nM
2. > 1000 nM

----------
Could you please report measured DC50 for the items listed next?
target: SHP2 protein (Homo sapiens, UniProt Q06124); experiment: Degradation activity on SHP2 protein in MV-411 cells (Western blot, DC50); format: cell-based; set-up: endogenous in cells; conditions: MV411 cells, 24 hours, read-out: Degradation activity for differenct cell lines MV411 (DC50)

Record excerpt, results attached:
Cc1ncsc1-c1ccc([C@H](C)NC(=O)[C@@H]2C[C@@H](O)CN2C(=O)[C@@H](NC(=O)c2ccc(N3CCC4(CN(CCCCCOCC(=O)Nc5cccc(Sc6cnc(N7CCC8(CC7)CO[C@@H](C)[C@H]8N)cn6)c5)C4)C3)nn2)C(C)(C)C)cc1 [Compound 120]	< 100 nM
Cc1ncsc1-c1ccc([C@H](C)NC(=O)[C@@H]2C[C@@H](O)CN2C(=O)[C@@H](NC(=O)CCCCCCCCC(=O)Nc2cccc(Sc3cnc(N4CCC(C)(N)CC4)cn3)c2)C(C)(C)C)cc1 [Compound 52]	< 100 nM

Read the next record carefully.
Output DC50 of C[C@@H]1OCC2(CCN(c3cnc(Sc4cccc(NC(=O)CCCCN5CC6(CCN(c7ccc(C(=O)NCc8ccc9c(c8)CN(C8CCC(=O)NC8=O)C9=O)nn7)C6)C5)c4)cn3)CC2)[C@@H]1N (stereo partly drawn) [Compound 109]
< 100 nM

----------
target: SHP2 protein (Homo sapiens); assay: Degradation activity on SHP2 protein in MV-411 cells (Western blot, DC50); type: cell-based; design: endogenous in cells; settings: MV411 cells, 24 hours, read-out: Degradation activity for differenct cell lines MV411 (DC50)
Could you please report measured DC50 for the items listed next?

Record excerpt, results attached:
CC1(N)CCN(c2cnc(Sc3cccc(NC(=O)CCCCCCCN4CC5CN(c6ccc(C(=O)NCc7ccc8c(c7)CN(C7CCC(=O)NC7=O)C8=O)nn6)CC5C4)c3)cn2)CC1 (stereo not drawn)	< 100 nM
CN[C@H](C)C(=O)N[C@@H](C(=O)N1C[C@@H](NC(=O)c2ccc(N3CC(C)N(CCCCCCCCC(=O)Nc4cccc(Sc5cnc(N6CCC(C)(N)CC6)cn5)c4)C(C)C3)nn2)C[C@@H]1C(=O)Nc1c(F)cccc1F)C(C)(C)C (stereo partly drawn)	> 1000 nM

Read the next record carefully.
Output DC50 of Cc1ncsc1-c1ccc([C@H](C)NC(=O)[C@@H]2C[C@@H](O)CN2C(=O)[C@@H](NC(=O)c2cnc(N3CCC(OCCCCCCCC(=O)Nc4cccc(Sc5cnc(N6CCC(C)(N)CC6)cn5)c4)CC3)nc2)C(C)(C)C)cc1
< 100 nM

----------
target: SHP2 protein (Homo sapiens); assay: Degradation activity on SHP2 protein in MV-411 cells (Western blot, DC50); format: cell-based; set-up: endogenous in cells; conditions: MV411 cells, 24 hours, read-out: Degradation activity for differenct cell lines MV411 (DC50)
Could you please report measured DC50 for the items listed next?

CC1(N)CCN(c2cnc(Sc3cccc(NC(=O)COCCOCCOCCOCC(=O)Nc4cccc5c4CN(C4CCC(=O)NC4=O)C5=O)c3)cn2)CC1 (stereo not drawn)	> 1000 nM

Please report DC50 for every entry that follows.
1. CN(Cc1ccc2c(c1)CN(C1CCC(=O)NC1=O)C2=O)C(=O)c1ccc(N2CCC3(CC(OCCCCCC(=O)Nc4cccc(Sc5cnc(N6CCC(C)(N)CC6)cn5)c4)C3)C2)nn1 (stereo not drawn)
2. CC1(N)CCN(c2cnc(Sc3cccc(NC(=O)CCCCCCCN4CC5(CCN(c6ccc(C(=O)NCc7ccc8c(c7)CN(C7CCC(=O)NC7=O)C8=O)nn6)C5)C4)c3)cn2)CC1 (stereo not drawn)
3. CC1(N)CCN(c2cnc(Sc3cccc(NC(=O)CCCCN4CC5(CCN(c6ccc(C(=O)NCc7ccc8c(c7)CN(C7CCC(=O)NC7=O)C8=O)nn6)C5)C4)c3)cn2)CC1 (stereo not drawn)
4. Cc1ncsc1-c1ccc([C@H](C)NC(=O)[C@@H]2C[C@@H](O)CN2C(=O)[C@@H](NC(=O)c2cnc(N3CCN(CCCCCCCC(=O)Nc4cccc(Sc5cnc(N6CCC(C)(N)CC6)cn5)c4)CC3)nc2)C(C)(C)C)cc1
5. CC1(N)CCN(c2cnc(Sc3cccc(NC(=O)CCC(=O)NCCOCCOCC(=O)NCc4ccc5c(c4)CN(C4CCC(=O)NC4=O)C5=O)c3)cn2)CC1 (stereo not drawn)
6. CC1(N)CCN(c2cnc(Sc3cccc(NC(=O)[C@@H]4C[C@H]4C(=O)N4CC5(CN(CCCCCCCC(=O)NCc6ccc7c(c6)CN(C6CCC(=O)NC6=O)C7=O)C5)C4)c3)cn2)CC1 (stereo partly drawn)

1. < 100 nM
2. < 100 nM
3. < 100 nM
4. < 100 nM
5. > 1000 nM
6. < 100 nM

----------
target: SHP2 protein (Homo sapiens); test: Degradation activity on SHP2 protein in MV-411 cells (Western blot, DC50); type: cell-based; parameters: endogenous in cells; settings: MV411 cells, 24 hours, read-out: Degradation activity for differenct cell lines MV411 (DC50)
Could you please report measured DC50 for the items listed next?

Record excerpt, results attached:
Cc1ncsc1-c1ccc([C@H](C)NC(=O)[C@@H]2C[C@@H](O)CN2C(=O)[C@@H](NC(=O)CCCCCCCN2CC3(C2)CN(C(=O)[C@@H]2C[C@H]2C(=O)Nc2cccc(Sc4cnc(N5CCC(C)(N)CC5)cn4)c2)C3)C(C)(C)C)cc1	< 0.1 µM
COc1nc(N2CCC3(CN(CCCCCCC(=O)Nc4cccc(Sc5cnc(N6CCC(C)(N)CC6)cn5)c4)C3)C2)ccc1C(=O)NCc1ccc2c(c1)CN(C1CCC(=O)NC1=O)C2=O (stereo not drawn)	< 0.1 µM

Please report DC50 for every entry that follows.
1. CC1(N)CCN(c2cnc(Sc3cccc(NC(=O)CCN4CC5(CCN(Cc6ccc(COc7cccc8c7CN(C7CCC(=O)NC7=O)C8=O)cc6)C5)C4)c3)cn2)CC1 (stereo not drawn)
2. CC1(CN)CCN(c2cnc(Sc3cccc(NC(=O)CCC(=O)N4CCN(CCCCCCCCC(=O)Nc5cccc6c5CN(C5CCC(=O)NC5=O)C6=O)CC4)c3Cl)cn2)CC1 (stereo not drawn)
3. Cc1ncsc1-c1ccc([C@H](C)NC(=O)[C@@H]2C[C@@H](O)CN2C(=O)[C@@H](NC(=O)c2ccc(N3CC[C@H](OCCCCCCCC(=O)Nc4cccc(Sc5cnc(N6CCC(C)(N)CC6)cn5)c4)C3)nn2)C(C)(C)C)cc1
4. Cc1ncsc1-c1ccc([C@H](C)NC(=O)[C@@H]2C[C@@H](O)CN2C(=O)[C@@H](NC(=O)/C=C/C(=O)N2CC3(CN(CCCCCCCC(=O)Nc4cccc(Sc5cnc(N6CCC(C)(N)CC6)cn5)c4)C3)C2)C(C)(C)C)cc1

1. > 1 µM
2. < 0.1 µM
3. < 0.1 µM
4. > 1 µM
